# Tested on: CAKI-1 renal
# ASSAY EXPLANATION: NCI tumour cell line growth inhibition, 48 h
Listing of entries alongside the reported TGI.
Report as a plain number; the unit µM is understood.

| COMPOUND | READING UNIT | EXPERIMENTAL VALUE |
| --- | --- | --- |
| Cc1cc(NS(=O)(=O)c2ccc(-c3cnc(C4CC4)o3)cc2)ccc1Cl | µM | 15.5 |

Now consider the entry below.
For reference, reported TGI for COC(=O)C1=C(N)C2=C(N)Oc3ccccc3C2CC1=C(C#N)C#N (stereo not given) stands at 72.2

* * *

# System: SK-MEL-5 melanoma
# ASSAY EXPLANATION: NCI tumour cell line growth inhibition, 48 h
In this section we review reported TGI values for a set of compounds.

Solved entries:
| SMILES STR | TEST SYSTEM | EXPERIMENTAL VALUE |
| --- | --- | --- |
| Cc1ccc(N=NC(=O)NNc2ccc(C)cc2Br)c(Br)c1 | SK-MEL-5 melanoma | 33.9 µM |
| CCc1n[nH]c(=O)n1-n1c(C)ccc1C | SK-MEL-5 melanoma | > 100 µM |

Summary for this compound, "O=C(Nc1nc2ccc(OC(F)(F)F)cc2s1)c1ccc(F)cc1" : TGI is 6.6 µM

// recorded TGI for "Cc1[nH]c(N)nc(=S)c1CCCNc1ccccc1" : 80 µM

Data point: "CSc1ccccc1NC1=NCCO1" ; TGI = > 100 µM

Record "CCNCCS(=O)(=O)NC[C@@]1(c2ccccc2)SC(NC(=O)C(C)(C)C)=NN1C(=O)C(C)(C)C" , field TGI: 20.3 µM

Documented TGI of "CN(C)Cc1ccc(O)c(CN(C)C)n1" : > 100 µM

* * *

# System: T-47D breast
# ASSAY EXPLANATION: NCI tumour cell line growth inhibition, 48 h
compounds and their reported TGI
Output spec: scalar in µM, unitless text.

| COMPOUND | TEST SYSTEM | TGI, µM |
| --- | --- | --- |
| CC(=O)OC1CCn2c1nc1c2C(=O)C=C(N2CC2)C1=O (stereo not given) | T-47D breast | 2.38 |
| Cc1cc2c(C(C)C)c(O)c(O)c(/C=N/O)c2c(O)c1-c1c(C)cc2c(C(C)C)c(O)c(O)c(/C=N/O)c2c1O | T-47D breast | 8.42 |
| COc1ccc(/C(=N/Nc2nc3ccccc3n2Cc2ccccc2)C(=O)O)cc1 | T-47D breast | 70.7 |

// below: TGI requested for another compound
The reported value for COc1ccc(C[C@@H]2OC3(C=CC(=O)CC3Sc3ccccc3)O[C@H]2Cc2ccc(OC)cc2)cc1 (stereo not given in full) in terms of TGI is 3.74

* * *

# Test system: UACC-257 melanoma
# ASSAY EXPLANATION: NCI tumour cell line growth inhibition, 48 h
QUANTITY NAME: TGI

Sample answers from the record:
| MOLECULE | TGI |
| --- | --- |
| O=C(c1ccc(Cl)c(Cl)c1)N(C(=S)OC12CC3CC(CC(C3)C1)C2)c1ccccc1 | > 100 µM |
| CN(C)CCNc1ncnc2nc(-c3ccccc3)c(-c3ccccc3)nc12 | > 100 µM |
| NC(=S)N/N=C/C(O[C@@H](/C=N/NC(N)=S)CO)n1cnc2c(N)ncnc21 (stereo not given in full) | > 100 µM |
| COc1ccc(/C=C/c2cc(O)cc(OC3OC(CO)C(O)C(O)C3O)c2)cc1O (stereo not given) | > 100 µM |
| CC(C)=NC(C(=O)O)C(C)(C)S (stereo not given) | > 100 µM |
| C/C=C(/C)C(=O)OC1C=C(CO)C(=O)C(OC(=O)C2(C)OC2C)C1C(C)C (stereo not given) | 2.75 µM |
| CC1(C)CCC2(C(=O)O)C(O)CC3(C)C(=CCC4C5(C)CCC(OC6OCC(O)C(O)C6OC6OCC(O)C(O)C6OC6OCC(O)C(OC7OC(CO)C(O)C(O)C7O)C6O)C(C)(C)C5CCC43C)C2C1 (stereo not given) | > 100 µM |
| COc1ncnc2c(Cl)c(C(O)c3ccccc3)c(Cl)cc12 (stereo not given) | > 100 µM |

Here is another molecule to look at.
What the record says about OCC1NC(CO)C(O)C1O (stereo not given) : TGI is > 100 µM

Data provenance is PubChem BioAssay (NCI).
